# target_entity: UniProt Q99571
# measurement_protocol: Human P2X4 HEK Cell FLIPR Assay
# Type: cell-based
# test_parameters: HEK293, HEK293 cells, agonist Bz-ATP at EC80; percentage of maximal inhibition; read-out: Human P2X4 HEK Cells (FLIPR Assay) avg Efficacy [%]
# Procedure: HEK293 cells stably expressing human P2X4 were plated in poly-D-lysine-coated 384-well plates at a seeding density of 30000 cells/well and incubated overnight. P2X4 function was assessed by measuring intracellular calcium changes using the calcium-chelating dye Fluo8-AM (Molecular Devices) on a fluorescent imaging plate reader (FLEX/FLIPR station; Molecular Devices). […] The EC80 value of Bz-ATP was determined each assay day prior to compound profiling. […]
# cutoff 80% applies to Emax; >= gives t, < gives f

Q. Is Emax at least 80%? Consider `NS(=O)(=O)c1cc(NC(=O)Cc2ccccc2C(F)(F)F)ccc1-n1cc(Br)cn1`
A. t

Q. Is Emax at least 80%? Consider `N#Cc1cnn(-c2ccc(NC(=O)Cc3ccc(Cl)cc3)cc2S(N)(=O)=O)c1`
A. f

Q. Is Emax at least 80%? Consider `CC(C)(C)c1ncn(-c2ccc(NC(=O)Cc3ccccc3Cl)cc2S(N)(=O)=O)n1`
A. t

Q. Is Emax at least 80%? Consider `NS(=O)(=O)c1cc(NC(=O)Cc2ccccc2F)ccc1-n1cnc(C(F)F)n1`
A. f

Q. Is Emax at least 80%? Consider `NS(=O)(=O)c1cc(NC(=O)Cc2ccccc2Cl)ccc1-n1nc2cc(F)cc(F)c2n1`
A. f

Q. Is Emax at least 80%? Consider N#Cc1cnn(-c2ccc(NC(=O)C(O)c3ccccc3Cl)cc2S(N)(=O)=O)c1 (centres unmarked)
A. f

Q. Is Emax at least 80%? Consider `NS(=O)(=O)c1cc(NC(=O)Cc2ccccc2Cl)ccc1-c1ccc(Cl)cc1`
A. t

Q. Is Emax at least 80%? Consider `Nc1cnn(-c2ccc(NC(=O)Cc3ccccc3Cl)cc2S(N)(=O)=O)c1`
A. t

---

# target_entity: human P2X4 (Homo sapiens, UniProt Q99571)
# Sequence (Q99571 whole entry): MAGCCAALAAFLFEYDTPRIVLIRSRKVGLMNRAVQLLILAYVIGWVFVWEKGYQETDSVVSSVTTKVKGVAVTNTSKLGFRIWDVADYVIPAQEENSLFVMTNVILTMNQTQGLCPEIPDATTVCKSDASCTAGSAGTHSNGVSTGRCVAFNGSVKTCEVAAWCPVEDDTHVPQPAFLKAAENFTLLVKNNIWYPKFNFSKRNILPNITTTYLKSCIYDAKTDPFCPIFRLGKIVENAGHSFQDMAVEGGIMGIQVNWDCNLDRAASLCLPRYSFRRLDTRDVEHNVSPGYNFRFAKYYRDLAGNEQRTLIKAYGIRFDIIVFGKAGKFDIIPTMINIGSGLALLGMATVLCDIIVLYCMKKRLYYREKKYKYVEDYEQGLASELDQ
# measurement_protocol: Human P2X4 HEK Cell FLIPR Assay
# test_parameters: HEK293 cells, agonist Bz-ATP at EC80; individual values listed where some fall outside detection range
pIC50: −log10 of the molar value.
# cutoff 7 applies to pIC50; >= gives condition met, < gives condition not met

Q. Is pIC50 at least 7? Consider `N#Cc1cnn(-c2ccc(NC(=O)Cc3ccccc3Br)cc2S(N)(=O)=O)c1`
A. condition met

Q. Is pIC50 at least 7? Consider `NS(=O)(=O)c1cc(NC(=O)Cc2ccccc2Cl)c(F)cc1-c1cnn(C(F)F)c1`
A. condition not met

Q. Is pIC50 at least 7? Consider `NS(=O)(=O)c1cc(NC(=O)Cc2ccc(F)c(F)c2)ccc1-n1cc(C(F)(F)F)cn1`
A. condition not met

Q. Is pIC50 at least 7? Consider `Cc1cc(C#N)nn1-c1ccc(NC(=O)Cc2ccccc2Cl)cc1S(N)(=O)=O`
A. condition met

Q. Is pIC50 at least 7? Consider `NS(=O)(=O)c1cc(NC(=O)Cc2ccc(F)cc2)ccc1-n1cc(F)cn1`
A. condition not met

Q. Is pIC50 at least 7? Consider `NS(=O)(=O)c1cc(NC(=O)Cc2ccccc2Cl)ccc1-n1cc2ncccc2n1`
A. condition met

Q. Is pIC50 at least 7? Consider `NS(=O)(=O)c1cc(NC(=O)Cc2ccccc2F)ccc1-c1nnc(C2CC2)o1`
A. condition met

Q. Is pIC50 at least 7? Consider `N#Cc1cnn(-c2ccc(NC(=O)Cc3c(Cl)cccc3C(F)(F)F)cc2S(N)(=O)=O)c1`
A. condition met

---

# target_entity: human P2X4 (Homo sapiens, UniProt Q99571)
# measurement_protocol: Human P2X4 HEK Cell FLIPR Assay
# Type: cell-based
# test_parameters: HEK293, HEK293 cells, agonist Bz-ATP at EC80; percentage of maximal inhibition; read-out: Human P2X4 HEK Cells (FLIPR Assay) avg Efficacy [%]
# cutoff 70% applies to Emax; >= gives TRUE, < gives FALSE

Q. Is Emax at least 70%? Consider `NS(=O)(=O)c1cc(NC(=O)Cc2ccccc2C(F)(F)F)ccc1-c1cnn(C(F)F)c1`
A. TRUE

Q. Is Emax at least 70%? Consider `CCOC(=O)c1cnn(-c2ccc(NC(=O)Cc3ccccc3F)cc2S(N)(=O)=O)c1`
A. FALSE

Q. Is Emax at least 70%? Consider `CN(C)c1nc(-c2ccc(NC(=O)Cc3ccccc3Cl)cc2S(N)(=O)=O)cs1`
A. TRUE

Q. Is Emax at least 70%? Consider `NS(=O)(=O)c1cc(NC(=O)Cc2ccccc2F)ccc1-n1nc2cc(F)cc(F)c2n1`
A. TRUE

Q. Is Emax at least 70%? Consider `NS(=O)(=O)c1cc(NC(=O)Cc2ccccc2Cl)ccc1-n1cc(Cl)cc(Cl)c1=O`
A. TRUE

Q. Is Emax at least 70%? Consider `NS(=O)(=O)c1cc(NC(=O)Cc2cccc(C(F)(F)F)c2Cl)ccc1-n1cc(C(F)(F)F)cn1`
A. FALSE

Q. Is Emax at least 70%? Consider `NS(=O)(=O)c1cc(NC(=O)Cc2ccccc2Cl)ccc1-n1nnc2c(F)cc(F)cc21`
A. TRUE

---

# target_entity: UniProt:Q99571
# measurement_protocol: Human P2X4 HEK Cell FLIPR Assay
# Format: cell-based
# test_parameters: HEK293, HEK293 cells, agonist Bz-ATP at EC80; percentage of maximal inhibition; read-out: Human P2X4 HEK Cells (FLIPR Assay) avg Efficacy [%]
# cutoff 80% applies to Emax; >= gives TRUE, < gives FALSE

Q. Is Emax at least 80%? Consider N#Cc1cnn(-c2ccc(NC(=O)Cc3cccc(F)c3F)cc2S(N)(=O)=O)c1 [Example 200]
A. TRUE

Q. Is Emax at least 80%? Consider CC(C(=O)Nc1cnn(-c2ccc(NC(=O)Cc3ccccc3Cl)cc2S(N)(=O)=O)c1)C(F)(F)F (single isomer, unassigned) [Example 509]
A. FALSE

Q. Is Emax at least 80%? Consider N#Cc1csc(-c2ccc(NC(=O)Cc3ccccc3Cl)cc2S(N)(=O)=O)n1 [Example 428]
A. FALSE

Q. Is Emax at least 80%? Consider NS(=O)(=O)c1cc(NC(=O)Cc2ccccc2Cl)ccc1-c1cnn(C2CCCCO2)c1 (centres unmarked) [Example 345]
A. TRUE

Q. Is Emax at least 80%? Consider NS(=O)(=O)c1cc(NC(=O)Cc2ccccc2F)ccc1-n1cc2ccccc2n1 [Example 397]
A. FALSE

Q. Is Emax at least 80%? Consider NS(=O)(=O)c1cc(NC(=O)Cc2ccccc2Cl)ccc1-n1cc2cccnc2n1 [Example 253]
A. TRUE

Q. Is Emax at least 80%? Consider NS(=O)(=O)c1cc(NC(=O)Cc2ccccc2F)ccc1-n1ncc2ccccc21 [Example 398]
A. FALSE

Q. Is Emax at least 80%? Consider CC(C)(O)c1nc(-c2ccc(NC(=O)Cc3ccccc3Cl)cc2S(N)(=O)=O)cs1 [Example 436]
A. FALSE

---

# target_entity: human P2X4 (Homo sapiens, UniProt Q99571)
# measurement_protocol: Human P2X4 HEK Cell FLIPR Assay
# test_parameters: HEK293 cells, agonist Bz-ATP at EC80; individual values listed where some fall outside detection range
readout_type: pIC50
Scale: pIC50 equals -log10([C]), with [C] in mol/L.

Q. Tell me pIC50 reported for `N#Cc1cnn(-c2ccc(NC(=O)Cc3ccc(Cl)cc3Cl)cc2S(N)(=O)=O)c1`
A. 7.40

Q. Tell me pIC50 reported for `Cc1cccc(CC(=O)Nc2ccc(-n3cc(Cl)cn3)c(S(N)(=O)=O)c2)c1`
A. 7.35

Q. Tell me pIC50 reported for CC(C(=O)Nc1cnn(-c2ccc(NC(=O)Cc3ccccc3Cl)cc2S(N)(=O)=O)c1)C(F)(F)F (racemic) [Example 508]
A. 6.76

Q. Tell me pIC50 reported for `COc1ccccc1CC(=O)Nc1ccc(-c2cnn(C(F)F)c2)c(S(N)(=O)=O)c1`
A. 6.95

---

# target_entity: human P2X4 (Homo sapiens, UniProt Q99571)
# measurement_protocol: Human P2X4 HEK Cell FLIPR Assay
# test_parameters: HEK293 cells, agonist Bz-ATP at EC80; individual values listed where some fall outside detection range
Note to self: IC50 under 100 nM means Criterion met, ties and anything higher get Criterion not met.

Q. Criterion: IC50 strictly below 100 nM. Is it met by `Nc1cnn(-c2ccc(NC(=O)Cc3ccccc3Cl)cc2S(N)(=O)=O)c1` ?
A. Criterion not met

Q. Criterion: IC50 strictly below 100 nM. Is it met by `NS(=O)(=O)c1cc(NC(=O)Cc2ccccc2OC(F)(F)F)ccc1-n1cc(F)cn1` ?
A. Criterion met

Q. Criterion: IC50 strictly below 100 nM. Is it met by `N#Cc1cnn(-c2cc(C(F)(F)F)c(NC(=O)Cc3ccccc3Cl)cc2S(N)(=O)=O)c1` ?
A. Criterion not met

Q. Criterion: IC50 strictly below 100 nM. Is it met by `Cc1ccc(CC(=O)Nc2ccc(-n3cc(F)cn3)c(S(N)(=O)=O)c2)cc1` ?
A. Criterion not met

Q. Criterion: IC50 strictly below 100 nM. Is it met by `CSc1cnn(-c2ccc(NC(=O)Cc3ccccc3Cl)cc2S(N)(=O)=O)c1` ?
A. Criterion not met

Q. Criterion: IC50 strictly below 100 nM. Is it met by `NS(=O)(=O)c1cc(NC(=O)Cc2ccc(Cl)cc2)ccc1-c1ccc(Cl)nc1` ?
A. Criterion not met

Q. Criterion: IC50 strictly below 100 nM. Is it met by `CC(C)(C)c1cc(-c2ccc(NC(=O)Cc3ccccc3Cl)cc2S(N)(=O)=O)n[nH]1` ?
A. Criterion met

Q. Criterion: IC50 strictly below 100 nM. Is it met by `NS(=O)(=O)c1cc(NC(=O)Cc2ccccc2Cl)ccc1-n1cc(NCC(F)(F)F)cn1` ?
A. Criterion met
